EXPERIMENT: BSK_KF3CT_SRB: Viability Assessment in the BioMAP Diversity Plus: KF3CT Assay (AID 2283069);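 further: total protein by sulforhodamine B staining as a cytotoxicity measure; read 24 h after compound addition; fitted for both signal gain and loss against DMSO baseline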
PROTOCOL CONDITIONS: primary human keratinocytes with fibroblasts
The source made the active and inactive calls. How the source made its calls: active means hit-call score of the fitted dose curve at least 0.9, where 1 is the maximum; inactive means score below 0.9.
Please answer using one outcome listed in true (active), false (inactive)

Reference set (5 entries):
1) CCOP(=S)(OCC)Oc1ccc2c(C)c(Cl)c(=O)oc2c1 | false
2) CCOC(=O)CC(SP(=O)(OC)OC)C(=O)OCC (centres undefined) | false
3) CCCCOC(=O)c1ccccc1C(=O)O | false
4) CCNc1nc(Cl)nc(NC(C)(C)C#N)n1 | false
5) CC1=NNC(=O)N(/N=C/c2cccnc2)C1 | false

Look up the recorded call for CCc1cnc(C2=NC(C)(C(C)C)C(=O)N2)c(C(=O)O)c1 (centres undefined) in this test. false

# lookup: test call for C#CCC1=C(C)C(OC(=O)C2C(C=C(C)C)C2(C)C)CC1=O (centres undefined) true

Given `CCCOc1nn(C(=O)NS(=O)(=O)c2ccccc2C(=O)OC)c(=O)n1C` , state the outcome it received in this test. false

# outcome recorded in this test, key = CC(COc1ccc(Oc2ccccc2)cc1)Oc1ccccn1 (centres undefined) false

Tell me the recorded outcome of this test for `CNC(=O)ON=C(C)SC` . false

Look up the recorded call for `CCCCSP(=O)(SCCCC)SCCCC` in this test. false

Recorded call for `COc1cc(OC)nc(Sc2cccc(Cl)c2C(=O)O)n1` ? false

Status in this test for CCC(=NOC/C=C/Cl)C1=C(O)CC(C2CCOCC2)CC1=O (centres undefined) ? false

* * *

Read-out: TIMP1, TIMP1 (gene 7076)
EXPERIMENT: LTEA_HepaRG_TIMP1: Life Technologies and Expression Analysis (LTEA) Assay for TIMP1 using HepaRG (AID 2283534);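 further: TaqMan qRT-PCR signal normalized to ACTB GAPDH and POLR2A housekeeping genes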
PROTOCOL CONDITIONS: mRNA level, 48 h; actives raise or lower the signal
Method: LTEA_HepaRG is a cell based, multiplexed-readout assay that uses HepaRG, a human liver cell line, with measurements taken at 48 hours after chemical dosing on a 96-well plate.LTEA_HepaRG_TIMP1 is one of 102 assay component(s) measured in the LTEA HepaRG cell culture assay. It is a marker of Cell proliferation, survival, death.Data from the assay component LTEA_HepaRG_TIMP1 was analyzed into 1 endpoint. […]
Active and inactive are the calls of the source. The calls were made as follows: active = hit-call score of the fitted dose curve at least 0.9, where 1 is the maximum; inactive = score below 0.9.
The categories you may choose from are active, inactive

Check the results log: what was the call for CC(Oc1cccc(Cl)c1)C(=O)O (configuration not stated) ? inactive

* * *

Read-out: Cytochrome P450 4A22 (Homo sapiens) (UniProt Q5TCH4)
EXPERIMENT: LTEA_HepaRG_CYP4A22: Life Technologies and Expression Analysis (LTEA) Assay for Cytochrome P450 4A22 (CYP4A22) using HepaRG (AID 2283495)
PROTOCOL CONDITIONS: mRNA level, 48 h; actives raise or lower the signal
Experimental: LTEA_HepaRG is a cell based, multiplexed-readout assay that uses HepaRG, a human liver cell line, with measurements taken at 48 hours after chemical dosing on a 96-well plate.LTEA_HepaRG_CYP4A22 is one of 102 assay component(s) measured in the LTEA HepaRG cell culture assay. It is a marker of NR mediated metabolism.Data from the assay component LTEA_HepaRG_CYP4A22 was analyzed into 1 endpoint. […]
Calls of active or inactive are those of the source. Rule for the calls: active = hit-call score of the fitted dose curve at least 0.9, where 1 is the maximum; inactive = score below 0.9.
Assign a class; possible classes are active, inactive

Use these answered entries as a reference point.
1. N#CSCSC#N | active
2. CC(Oc1cccc(Cl)c1)C(=O)O (stereo not drawn) | inactive

Query: recorded result category for CC(C1CC1)C(O)(Cn1cncn1)c1ccc(Cl)cc1 (stereo not drawn) in this test active

Could you please tell me the result logged for `CNc1cnn(-c2cccc(C(F)(F)F)c2)c(=O)c1Cl` in this assay? inactive

What did the test return for `CCOP(=S)(OCC)SCCSCC` ? inactive

Hi, sorry to bother you, what did the test record for `CCNc1nc(Cl)nc(NC(C)(C)C#N)n1` ? inactive

Query: recorded result category for `CCCCN(CC)c1c([N+](=O)[O-])cc(C(F)(F)F)cc1[N+](=O)[O-]` in this test inactive

# lookup: test call for `CCCSP(=O)(OCC)SCCC` inactive

Could you please tell me the result logged for CCc1cnc(C2=NC(C)(C(C)C)C(=O)N2)c(C(=O)O)c1 (stereo not drawn) in this assay? inactive

// param item: CCOC(=O)CC(SP(=O)(OC)OC)C(=O)OCC (stereo not drawn) ; yields the recorded call inactive

Answer briefly: the call reported for `COc1cccc(C(=O)NN(C(=O)c2cc(C)cc(C)c2)C(C)(C)C)c1C` in this assay. inactive

Any idea what this test logged for `COc1ccc(C(=CC(=O)N2CCOCC2)c2ccc(Cl)cc2)cc1OC` ? active

Could you please tell me the result logged for `Cc1nn(-c2cc(NS(C)(=O)=O)c(Cl)cc2Cl)c(=O)n1C(F)F` in this assay? inactive

Any idea what this test logged for `CCCOCC(=Nc1ccc(Cl)cc1C(F)(F)F)n1ccnc1` ? active

Entry `C=C(C)[C@H]1Cc2c(ccc3c2O[C@@H]2COc4cc(OC)c(OC)cc4[C@@H]2C3=O)O1` : call = ? active

Status in this test for `CCOP(=S)(OCC)Oc1cc(C)nc(C(C)C)n1` ? inactive

What did this assay record as the result for `Nc1nc(N)nc(NC2CC2)n1` ? inactive

Tell me the assay call for `O=[N+]([O-])c1cc(C(F)(F)F)c(Cl)c([N+](=O)[O-])c1Nc1ncc(C(F)(F)F)cc1Cl` please. active

State the result this test recorded for `COP(=O)(OC)SCn1c(=O)oc2cc(Cl)cnc21` . active

Just curious, what result did CCCSP(=O)(OCC)Oc1ccc(Br)cc1Cl (stereo not drawn) get here? inactive

Look up the recorded call for CC(C)=CC1C(C(=O)OCN2C(=O)C3=C(CCCC3)C2=O)C1(C)C (stereo not drawn) in this test. inactive

Please let me know the test result on file for CCOP(=S)(Oc1cnc(C(C)(C)C)nc1)OC(C)C (stereo not drawn) . inactive

All values here come from PubChem BioAssay (EPA / NIEHS).
